test system: P12-Ichikawa; test: cell viability relative to DMSO control; higher = less cytotoxic; conditions: RPMI 5 mM glucose + 10% dialyzed FBS; 48 h; 0.19 µM
Exercise: state measured cell viability for each of the compounds provided.
Record the value in %, omitting the unit from your answer.

Entry CCc1ccc(C(=O)Nc2cc(CN3CCN(C)CC3)cc(C(F)(F)F)c2)cc1C#Cc1cnc2ccnn2c1 — recorded cell viability = 119

Entry O=C(C1CC1)N1CC[C@@H](Cn2c(-c3ccc(-c4ccc5occc5c4)cc3)nc3cnccc32)C1 — recorded cell viability = 128

Entry CN(c1nccc(=O)[nH]1)C1CCN(c2nc3ccccc3n2Cc2ccc(F)cc2)CC1 — recorded cell viability = 113

Entry Cn1cc(-c2cnn3c(N)c(Br)c([C@@H]4CCCNC4)nc23)cn1 — recorded cell viability = 99

Entry C[C@H](NC(=O)Cc1cc(F)cc(F)c1)C(=O)N[C@@H]1C(=O)N(C)c2ccccc2-c2ccccc21 — recorded cell viability = 117

Entry O=C(c1ccc(/C=C/c2n[nH]c3ccccc23)cc1)N1CCNCC1 — recorded cell viability = 98.3

// data source = the supplement of paper PMC11451515
